Target: T1, human CTLA4 (human, UniProt P16410 36-161, limits assumed)
T1 sequence (looked up): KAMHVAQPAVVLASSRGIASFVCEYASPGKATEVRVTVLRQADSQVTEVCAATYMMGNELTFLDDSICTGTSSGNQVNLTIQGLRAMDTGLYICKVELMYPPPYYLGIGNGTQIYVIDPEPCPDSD
Experiment: Interaction with CTLA4, ICOS CD28; assay not detailed
measuredEndpoint: binding result

[[record]]
binder = "13F1 murine anti-PD-1 antibody (antibody, V domains shown, Purified hybridoma antibody; also called 13F1-mIgG1) VH: DVQLQESGPGLVKPSQSLSLTCTVTGYSITSDYAWNWIRQFPGNQLEWMAYISYSGYTSYNPSLKSRISITRDTSKNQFFLQLNSVTTEDTATYYCARSLDYDYGTMDYWGQGTSVTVSS VL: QIVLSQSPAILSASPGEKVTMTCRANSSVSSMHWYQQKPGSSPEPWIYAISNLAFGVPTRFSGSGSGTSYSLTISRVEAEDAATYFCQQWSSRPPTFGGGTKLEIKR"
measuredendpoint = "binding result"
result = "no binding"

[[record]]
binder = "6E1 murine anti-PD-1 antibody (antibody, V domains shown, Purified hybridoma antibody; also called 6E1-mIgG1) VH: EVKLVESGGGLVKPGGSLKLSCAASGFTFSSYGMSWVRQTPEKRLEWVATISGGGRDTYYLDSVKGRFTISRDNAKNNLYLQMSSLRSEDTALYYCVRQYYDDWFAYWGQGTLVSNSA VL: DIVLTQTPATLSVTPGDSVSLSCRASQSLSNNLHWYQQKSHESPRLLIKYASQSISGIPSRFSGSGSGTDFTLSINSVETEDFGMYFCQQSNSWPLTFGAGTKLEMKR"
measuredendpoint = "binding result"
result = "no binding"

[[record]]
binder = "7D3 murine anti-PD-1 antibody (antibody, V domains shown, Purified hybridoma antibody; also called 7D3-mIgG1) VH: EVKLVESGGGLVKPGGSLKLSCGASGFTFSSYGMSWVRQTPEKRLEWVATISGGGRDIYYPDSVKGRLTISRDNAKNNLYLQMSSLRSEDTALYYCVRQYYDDWFAYWGQGTLVTVSA VL: DIVLTQSPATLSVTPGDSVSLSCRASQSISNDLHWYQQKSHESPRLLIKYVSQSISGIPSRFSGSGSGTDFTLSINSVETEDFGMYFCQQSDSWPLTFGAGTKLELKR"
measuredendpoint = "binding result"
result = "no binding"

